Hi! I'm sharing some Ki results obtained with Prothrombin (Homo sapiens).

Examples with answers:
>  <smiles.data>
CCOC(=O)c1ccc(Oc2cccc(C(=N)N)c2)nc1Oc1cccc(C(=N)N)c1

>  <Ki>
> 5 µM

$$$$
>  <smiles.data>
N=C(N)c1cccc(Oc2cncc(Oc3cccc(C(=N)N)c3)n2)c1

>  <Ki>
> 5 µM

$$$$
>  <smiles.data>
N=C(N)c1cccc(Oc2ccnc(Oc3cccc(C(=N)N)c3)n2)c1

>  <Ki>
> 5 µM

$$$$
>  <smiles.data>
Cc1c(F)c(N(C)c2cccc(C(=N)N)c2)nc(N(C)c2cccc(C(=N)N)c2)c1F

>  <Ki>
0.36 µM

$$$$
>  <smiles.data>
N=C(N)c1ccc(Oc2cc(Oc3ccc(C(=N)N)cc3)c(Cl)cc2Cl)cc1

>  <Ki>
2.5 µM

$$$$
>  <smiles.data>
CNC(=O)c1cc(Oc2cccc(C(=N)N)c2)nc(Oc2cccc(C(=N)N)c2)c1

>  <Ki>
4.2 µM

$$$$
>  <smiles.data>
COc1c(F)c(Oc2cccc(C(=N)N)c2)nc(Oc2cccc(C(=N)N)c2)c1F

>  <Ki>
> 5 µM

$$$$
>  <smiles.data>
CNC(=O)c1ccc(Oc2cccc(C(=N)N)c2)nc1Oc1cccc(C(=N)N)c1

>  <Ki>
> 5 µM

$$$$

**Query** Please indicate Ki recorded for N=C(N)c1cccc(Oc2ccc(C(=O)O)c(Oc3cccc(C(=N)N)c3)n2)c1
**Result** > 100 µM

**Query** Please indicate Ki recorded for N=C(N)c1cccc(Oc2ccc(C(=O)NCC(N)=O)c(Oc3cccc(C(=N)N)c3)n2)c1
**Result** > 5 µM
